Just for reference, patent US10654853B2 is where these values come from.

For each record, write down the corresponding pIC50.
molecular target: Cezanne 1 (Homo sapiens (Human), UniProt Q6GQQ9); assay: Cezanne 1 biochemical IC50 assay (fluorescence polarisation, TAMRA labelled peptide linked to ubiquitin); details: Cezanne 1 biochemical IC50 assay; 30 min pre-incubation, read after 2 hr at room temperature; read-out: IC50 range
Sequence (Q6GQQ9 whole entry): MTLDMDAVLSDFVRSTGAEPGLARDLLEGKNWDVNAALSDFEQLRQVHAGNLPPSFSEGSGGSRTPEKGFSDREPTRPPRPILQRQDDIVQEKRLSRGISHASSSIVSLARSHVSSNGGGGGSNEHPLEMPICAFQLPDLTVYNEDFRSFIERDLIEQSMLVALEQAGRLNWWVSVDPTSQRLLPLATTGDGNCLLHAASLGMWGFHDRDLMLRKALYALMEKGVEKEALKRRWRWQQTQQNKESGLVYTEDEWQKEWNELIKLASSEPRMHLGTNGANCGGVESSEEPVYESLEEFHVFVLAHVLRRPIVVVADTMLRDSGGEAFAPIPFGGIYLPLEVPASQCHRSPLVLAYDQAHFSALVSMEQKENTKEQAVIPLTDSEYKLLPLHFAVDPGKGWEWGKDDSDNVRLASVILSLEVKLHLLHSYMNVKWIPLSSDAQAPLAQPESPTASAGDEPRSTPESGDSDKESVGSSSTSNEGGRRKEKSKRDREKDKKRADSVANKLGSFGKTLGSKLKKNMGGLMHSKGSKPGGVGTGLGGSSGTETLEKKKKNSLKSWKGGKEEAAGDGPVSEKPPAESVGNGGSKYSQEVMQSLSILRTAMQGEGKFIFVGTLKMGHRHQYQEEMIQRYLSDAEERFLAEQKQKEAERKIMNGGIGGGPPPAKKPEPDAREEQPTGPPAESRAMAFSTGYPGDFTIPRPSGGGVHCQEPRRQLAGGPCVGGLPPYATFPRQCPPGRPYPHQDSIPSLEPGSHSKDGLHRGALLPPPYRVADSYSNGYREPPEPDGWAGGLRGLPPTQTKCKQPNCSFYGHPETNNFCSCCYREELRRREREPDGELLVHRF
pIC50: −log10 of the molar value.

Reference set (5 entries):
N#CN1CCC2(Cc3cc(-c4ccc(C(=O)N5CCOCC5)cc4)ccc3NC2=O)C1 (centres unmarked) [Example 120]	6.00 to 7.00
N#CN1CCC2(C1)Oc1nc(C(=O)Nc3ccccc3)ccc1NC2=O (centres unmarked) [Example 143]	6.00 to 7.00
N#Cc1cccc(-c2cnc3c(c2)NC(=O)[C@@]2(CCN(C#N)C2)N3)c1 [Example 75]	6.00 to 7.00
CNC(=O)c1ccc(-c2ccc3c(c2)CC2(CCN(C#N)C2)C(=O)N3)cn1 (centres unmarked) [Example 98]	6.00 to 7.00
N#CN1CCC2(Cc3cc(-c4cccc(OCc5ccccc5Cl)c4)ccc3NC2=O)C1 (centres unmarked) [Example 102]	5.00 to 6.00

Hi, could you look up pIC50 for each item in my list?
1. C[C@H]1NC(=O)C2(CCN(C#N)C2)NC1=O (some centres unmarked) [Example 76]
2. N#CN1CCC2(C1)Nc1ncccc1NC2=O (centres unmarked) [Example 55]
3. Cn1cc(-c2ccc3c(c2)NC(=O)C2(CCN(C#N)C2)C3)cn1 (centres unmarked) [Example 12]

Result:
1. 5.00 to 6.00
2. 5.00 to 6.00
3. 5.00 to 6.00

---

target: UniProt Q6GQQ9; test: Cezanne 1 biochemical IC50 assay (fluorescence polarisation, TAMRA labelled peptide linked to ubiquitin); details: Cezanne 1 biochemical IC50 assay; 30 min pre-incubation, read after 2 hr at room temperature; read-out: IC50 range
pIC50: −log10 of the molar value.
metricName: pIC50

N#CN1CCC2(Cc3ccc(-c4ccc(S(=O)(=O)N5CCOCC5)cc4)cc3NC2=O)C1 (stereo not drawn)	5.00 to 6.00
N#CN1CCC2(C1)Nc1nc(C(F)(F)F)ccc1NC2=O (stereo not drawn)	5.00 to 6.00
N#CN1CCC2(Cc3ccccc3NC2=O)C1 (stereo not drawn)	5.00 to 6.00

Hi, could you look up pIC50 for each item in my list?
1. N#CN1CCC2(Cc3cc(-c4ccc(S(=O)(=O)N5CCOCC5)cc4)ccc3NC2=O)C1 (stereo not drawn)
2. COc1ccc(-c2ccc3c(c2)CC2(CCN(C#N)C2)C(=O)N3)cn1 (stereo not drawn)
3. CC1CC2(CCN(C#N)C2)C(=O)N1 (single isomer, unassigned) [Example 83]
4. CN(C)C(=O)c1ccc2c(c1)NC(=O)C1(CCN(C#N)C1)C2 (stereo not drawn)

Result:
6.00 to 7.00
6.00 to 7.00
< 5.00
5.00 to 6.00

Hi, could you look up pIC50 for each item in my list?
1. N#CN1CCC2(C1)Oc1nc(C(=O)N3CCCCC3)ccc1NC2=O (stereo not drawn)
2. N#CN1CCC2(Cc3cc(-c4cccc5[nH]ncc45)ccc3NC2=O)C1 (stereo not drawn)
3. N#CN1CCC2(Cc3cc(-c4ccc(Oc5ccccc5)cc4)ccc3NC2=O)C1 (stereo not drawn)
4. Cn1cc(-c2ccc3c(c2)CC2(CCN(C#N)C2)C(=O)N3)ccc1=O (stereo not drawn)
5. N#CN1CC[C@@]2(C1)Nc1ncc(-c3ccccc3)cc1NC2=O
6. N#Cc1ccc(-c2cnc3c(c2)NC(=O)C2(CCN(C#N)C2)N3)cc1 (stereo not drawn)

Result:
5.00 to 6.00
6.00 to 7.00
5.00 to 6.00
5.00 to 6.00
6.00 to 7.00
6.00 to 7.00

---

Biological target: Cezanne 1 (Homo sapiens (Human))
Experiment: Cezanne 1 biochemical IC50 assay (fluorescence polarisation, TAMRA labelled peptide linked to ubiquitin)
Conditions: Cezanne 1 biochemical IC50 assay; 30 min pre-incubation, read after 2 hr at room temperature; read-out: IC50 range
Protocol: The Cezanne 1 construct was PCR amplified and cloned into a pFLAG-CMV-6c vector (Sigma-Aldrich) with an N-terminal FLAG tag. […] Reactions were initiated by the addition of 50 nM of TAMRA labelled peptide linked to ubiquitin via an iso-peptide bond as fluorescence polarisation substrate. Reactions were read immediately after addition of substrate and following a 2 hr incubation at room temperature. Readings were performed on a Pherastar Plus (BMG Labtech). λ Excitation 540 nm; λ Emission 590 nm.
pIC50: −log10 of the molar value.
For each record, write down the corresponding pIC50.

Reference set (8 entries):
N#CN1CCC2(Cc3cc(-c4cccc(OC(F)(F)F)c4)ccc3NC2=O)C1 (centres unmarked) [Example 95]	6.00 to 7.00
N#CN1CCC2(C1)Oc1ncc(-c3cccc4[nH]ncc34)cc1NC2=O (centres unmarked) [Example 135]	> 7.00
N#CN1CCC2(C1)NC(=O)C(c1ccccc1)NC2=O (centres unmarked) [Example 79]	5.00 to 6.00
N#CN1CC[C@@]2(C1)Oc1ncccc1NC2=O [Example 65]	5.00 to 6.00
N#CN1CCC2(Cc3cc(-c4ccc(F)cc4)ccc3NC2=O)C1 (centres unmarked) [Example 44]	6.00 to 7.00
CN(C)C(=O)c1cccc(-c2ccc3c(c2)NC(=O)C2(CCN(C#N)C2)C3)c1 (centres unmarked) [Example 30]	6.00 to 7.00
N#CN1CCC2(C1)Oc1nc(C(=O)Nc3ccccc3F)ccc1NC2=O (centres unmarked) [Example 144]	6.00 to 7.00
N#CN1CCC2(C1)Oc1nc(C(=O)Nc3ccc(F)cc3)ccc1NC2=O (centres unmarked) [Example 141]	5.00 to 6.00

Hi, could you look up pIC50 for each item in my list?
1. Cc1ccc2[nH]ncc2c1-c1ccc2c(c1)NC(=O)[C@@]1(CCN(C#N)C1)C2 [Example 132]
2. N#CN1CCC2(C1)Oc1nc(-c3ccccc3)ccc1NC2=O (centres unmarked) [Example 54]

Result:
1: 6.00 to 7.00; 2: 6.00 to 7.00

Problem: Record request: pIC50 value, item Cn1nccc1-c1ccc2c(c1)CC1(CCN(C#N)C1)C(=O)N2 (centres unmarked) [Example 94]
Result: 6.00 to 7.00
